Quick reference: IC50 of the listed items.
# assayed.system: Glucose-6-phosphate 1-dehydrogenase (Homo sapiens, UniProt P11413)
# Sequence (P11413 whole entry): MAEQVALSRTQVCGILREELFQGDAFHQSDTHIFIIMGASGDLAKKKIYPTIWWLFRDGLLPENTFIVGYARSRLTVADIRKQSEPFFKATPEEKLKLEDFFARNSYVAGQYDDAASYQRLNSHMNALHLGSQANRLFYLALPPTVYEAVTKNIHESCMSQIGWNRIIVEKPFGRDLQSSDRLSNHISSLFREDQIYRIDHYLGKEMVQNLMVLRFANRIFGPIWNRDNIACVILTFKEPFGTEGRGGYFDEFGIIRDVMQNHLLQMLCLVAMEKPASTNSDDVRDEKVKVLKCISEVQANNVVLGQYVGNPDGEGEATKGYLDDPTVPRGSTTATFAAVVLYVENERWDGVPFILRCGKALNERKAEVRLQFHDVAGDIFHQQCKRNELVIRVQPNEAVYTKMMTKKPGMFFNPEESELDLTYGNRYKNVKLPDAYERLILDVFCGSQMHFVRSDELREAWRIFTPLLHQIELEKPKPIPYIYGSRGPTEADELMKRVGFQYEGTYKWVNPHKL
# procedure.summary: human G6PD enzyme inhibitors, dose response, selectivity assay for P. falciparum G6PD inhibitor project, biochemical, fluorescence (AID 504792)
# Type: functional
Activity calls are given as the source filed them. Cut-off read from the data, not from the text of the source: active = IC50 of 20 µM or less and inactive = more.

(Q) Give reported IC50 value for "Nc1cc(N)c(OCC(F)(F)F)cc1OCC(F)(F)F"
(A) 32.7 µM (inactive)

(Q) Report IC50, nothing else, for this compound: "Cn1c2ccccc2c2ccc3c(c21)C(=O)C=CC3=O"
(A) > 80 µM (inactive)

(Q) Give the reported IC50 for this compound. "Cc1cc(C)c2c(=O)n(CC(=O)NC3CCCC3)sc2n1"
(A) > 80 µM (inactive)

(Q) Give the reported IC50 for this compound. "O=C(COc1ccccc1F)OCC(=O)c1ccc([N+](=O)[O-])cc1"
(A) > 80 µM (inactive)

(Q) Quickly give me recorded IC50 for "O=[N+]([O-])c1ccc(N/N=C/c2ccc(O)c(O)c2O)c(S(=O)(=O)N2CCOCC2)c1"
(A) 55.6 µM (inactive)

(Q) Return IC50 (reported value) for this compound: "CN(C)c1ncc(C2=C(Cl)C(=O)C(N3CCCC3)=C(Cl)C2=O)s1"
(A) 30.7 µM (inactive)
